Task for the reader: assign each of the following molecules its reported half-life.
Assay: Half life in mouse at 10 mg/kg, po
Assay type: ADME, organism-based
Set-up: dose 10 mg/kg, route oral
Conditions: in vivo

Smiles Input	half-life
Cn1cncc1C(=O)N(Cc1cc(=O)[nH]c2c(F)c(F)ccc12)c1cccc(Cl)c1	1.1 h

Kindly consider the entry below.
Please list half-life recorded for the molecule Cc1ncsc1C(=O)N(Cc1cc(=O)[nH]c2c(F)cccc12)c1cccc(Cl)c1
0.9 h

###

Would you kindly list inhibition for each of these molecules?
Target: UniProtKB P29474
Sequence (P29474 whole entry): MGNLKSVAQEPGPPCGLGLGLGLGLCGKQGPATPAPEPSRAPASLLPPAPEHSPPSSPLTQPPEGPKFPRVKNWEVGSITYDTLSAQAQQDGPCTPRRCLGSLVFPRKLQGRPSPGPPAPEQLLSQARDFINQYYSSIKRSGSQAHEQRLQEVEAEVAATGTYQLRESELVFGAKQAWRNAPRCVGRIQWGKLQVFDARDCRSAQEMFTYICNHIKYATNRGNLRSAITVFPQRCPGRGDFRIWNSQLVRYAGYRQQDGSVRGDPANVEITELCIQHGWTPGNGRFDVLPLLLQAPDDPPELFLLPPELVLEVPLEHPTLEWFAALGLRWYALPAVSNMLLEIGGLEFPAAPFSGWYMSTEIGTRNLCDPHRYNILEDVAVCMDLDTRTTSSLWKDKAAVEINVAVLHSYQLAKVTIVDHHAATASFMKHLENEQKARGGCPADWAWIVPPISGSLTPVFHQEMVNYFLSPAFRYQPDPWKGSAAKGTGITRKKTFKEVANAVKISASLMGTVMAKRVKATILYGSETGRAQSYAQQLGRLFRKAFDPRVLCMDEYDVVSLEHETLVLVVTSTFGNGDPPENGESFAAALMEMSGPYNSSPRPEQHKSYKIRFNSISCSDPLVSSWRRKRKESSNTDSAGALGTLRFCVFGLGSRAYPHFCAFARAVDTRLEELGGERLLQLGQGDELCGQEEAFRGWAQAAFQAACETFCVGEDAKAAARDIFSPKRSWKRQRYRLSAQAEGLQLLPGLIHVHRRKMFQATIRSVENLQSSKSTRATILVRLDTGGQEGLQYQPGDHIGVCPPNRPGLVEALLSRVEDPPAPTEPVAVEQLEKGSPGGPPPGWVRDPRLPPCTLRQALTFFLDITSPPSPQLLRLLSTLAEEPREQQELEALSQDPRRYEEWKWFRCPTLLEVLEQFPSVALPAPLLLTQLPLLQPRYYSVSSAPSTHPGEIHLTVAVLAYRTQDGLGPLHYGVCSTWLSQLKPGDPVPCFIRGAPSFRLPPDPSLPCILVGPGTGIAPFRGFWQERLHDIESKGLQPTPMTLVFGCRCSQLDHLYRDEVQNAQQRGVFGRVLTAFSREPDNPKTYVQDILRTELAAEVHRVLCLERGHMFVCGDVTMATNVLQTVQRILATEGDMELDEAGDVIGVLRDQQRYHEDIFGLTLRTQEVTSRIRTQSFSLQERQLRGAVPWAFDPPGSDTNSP
Assay: Inhibition of human eNOS expressed in HEK293 cells assessed as NO production at 100 uM by transient transfection assay relative to BBS-4
Format: cell-based

Smiles Input	System	inhibition
O=C(C1CCCC1)N(Cc1cc(=O)[nH]c2c(F)cccc12)c1cccc(Cl)c1	UniProtKB P29474	< 50%
O=C(c1ccco1)N(Cc1cc(=O)[nH]c2ccccc12)c1ccccc1	UniProtKB P29474	< 50%
Cc1ncsc1C(=O)N(Cc1cc(=O)[nH]c2c(Cl)cccc12)c1cccc(Cl)c1	UniProtKB P29474	< 50%

Please give inhibition for each item listed below.
1. CC(C)C(=O)N(Cc1cc(=O)[nH]c2c(F)cccc12)c1cccc(Cl)c1
2. Cc1ncsc1C(=O)N(Cc1cc(=O)[nH]c2ccccc12)c1cccc(Cl)c1
3. Cc1cccnc1C(=O)N(Cc1cc(=O)[nH]c2c(F)cccc12)c1cccc(Cl)c1
4. Cc1ncsc1C(=O)N(Cc1cc(=O)[nH]c2ccccc12)c1ccccc1

["< 50%", "< 50%", "< 50%", "< 50%"]

For each of the molecules below, note its inhibition.
1. Cc1ncsc1C(=O)N(Cc1cc(=O)[nH]c2c(F)cccc12)c1ccc(Cl)cc1
2. O=C(c1ccco1)N(Cc1cc(=O)[nH]c2c(F)cccc12)c1ccccc1
3. Cc1ncccc1C(=O)N(Cc1cc(=O)[nH]c2c(F)cccc12)c1cccc(Cl)c1
4. Cc1ncsc1C(=O)N(Cc1cc(=O)[nH]c2c(F)cccc12)c1ccccc1Cl
5. O=C(c1cncs1)N(Cc1cc(=O)[nH]c2c(F)cccc12)c1cccc(Cl)c1

1: < 50%; 2: < 50%; 3: < 50%; 4: < 50%; 5: < 50%

Go through the list and state inhibition for each entry.
1. Cc1cccc(N(Cc2cc(=O)[nH]c3c(F)cccc23)C(=O)c2scnc2C)c1
2. Cc1ncsc1C(=O)N(Cc1cc(=O)[nH]c2cccc(F)c12)c1cccc(Cl)c1
3. Cc1ncsc1C(=O)N(Cc1cc(=O)[nH]c2c(F)cccc12)c1ccccc1
4. COc1cccc(N(Cc2cc(=O)[nH]c3c(F)cccc23)C(=O)c2scnc2C)c1

["< 50%", "< 50%", "< 50%", "< 50%"]

Provide the reported inhibition of each entry below, same order.
1. Cc1ncsc1C(=O)N(Cc1cc(=O)[nH]c2ccc(F)cc12)c1cccc(Cl)c1
2. Cc1ncsc1C(=O)N(Cc1cc(=O)[nH]c2c(F)cccc12)c1cccc(C#N)c1

["< 50%", "< 50%"]
